The reported numbers originate from paper PMC11073699.

Target: AaegOR8 (Aedes aegypti, UniProt Q16MN0)
Assay: Two-electrode voltage clamp of Xenopus laevis oocytes expressing AaegOR8/Orco (blends, unitary compounds, concentration-response)
Format: cell-based
Conditions: Alcohols 2 unitary compounds; oocyte 1
Below, each entry is listed alongside its reported Raw data (Responses in nA) Oocyte 1.
reported-endpoint: Raw data (Responses in nA) Oocyte 1

> print(dat)
                                   compound                                tested.on    result
1                                   CCCCCCO  AaegOR8 (Aedes aegypti, UniProt Q16MN0)   10.0 nA
2                                 OC1CCCCC1  AaegOR8 (Aedes aegypti, UniProt Q16MN0)    0.0 nA
3             CC/C=C\CCO [cis-3-hexen-1-ol]  AaegOR8 (Aedes aegypti, UniProt Q16MN0)    0.0 nA
4           CCC/C=C/CO [trans-2-hexen-1-ol]  AaegOR8 (Aedes aegypti, UniProt Q16MN0)    0.0 nA
5           C=CC(O)CCCCC (stereo not drawn)  AaegOR8 (Aedes aegypti, UniProt Q16MN0)  190.0 nA
6    CC1CCCC2(C)CCCCC12O (stereo not drawn)  AaegOR8 (Aedes aegypti, UniProt Q16MN0)    0.0 nA
7             CCC/C=C/C=O [trans-2-hexenal]  AaegOR8 (Aedes aegypti, UniProt Q16MN0)    0.0 nA
8  C[C@@H]1CC[C@H]2C(C)(C)[C@H]3C[C@@]12CC[C@@]3(C)O  AaegOR8 (Aedes aegypti, UniProt Q16MN0)    0.0 nA
9                                COc1ccccc1  AaegOR8 (Aedes aegypti, UniProt Q16MN0)    0.0 nA

----------
Target: AaegOR6 (Aedes aegypti)
Assay: Two-electrode voltage clamp of Xenopus laevis oocytes expressing AaegOR6/Orco (blends, unitary compounds, concentration-response)
Assay type: cell-based
Conditions: Indoles 2 unitary compounds; oocyte 4
reported-endpoint: Raw data (Responses in nA) Oocyte 4

> print(dat)
                               compound                    reported.endpoint  numeric.result
 1                    O=C1Nc2ccccc2C1=O  Raw data (Responses in nA) Oocyte 4             0.0
 2              O=C(O)Cc1c[nH]c2ccccc12  Raw data (Responses in nA) Oocyte 4             0.0
 3                      O=C1Cc2ccccc2N1  Raw data (Responses in nA) Oocyte 4             0.0
 4  Oc1cccc2[nH]ccc12 [4-Hydroxyindole]  Raw data (Responses in nA) Oocyte 4             0.0
 5                    O=Cc1ccnc2ccccc12  Raw data (Responses in nA) Oocyte 4             0.0
 6                       c1ccc2nccnc2c1  Raw data (Responses in nA) Oocyte 4             0.0
 7                     O=C1CCOc2ccccc21  Raw data (Responses in nA) Oocyte 4           170.0
 8                       c1ccc2ncncc2c1  Raw data (Responses in nA) Oocyte 4             0.0
 9                       c1ccc2ncccc2c1  Raw data (Responses in nA) Oocyte 4             0.0
10                   OCc1c[nH]c2ccccc12  Raw data (Responses in nA) Oocyte 4             0.0
11                      Nc1cccc2cnccc12  Raw data (Responses in nA) Oocyte 4             0.0

----------
Target: AaegOR28 (Aedes aegypti)
Sequence (Q0IGE1 1-394, one chain of several): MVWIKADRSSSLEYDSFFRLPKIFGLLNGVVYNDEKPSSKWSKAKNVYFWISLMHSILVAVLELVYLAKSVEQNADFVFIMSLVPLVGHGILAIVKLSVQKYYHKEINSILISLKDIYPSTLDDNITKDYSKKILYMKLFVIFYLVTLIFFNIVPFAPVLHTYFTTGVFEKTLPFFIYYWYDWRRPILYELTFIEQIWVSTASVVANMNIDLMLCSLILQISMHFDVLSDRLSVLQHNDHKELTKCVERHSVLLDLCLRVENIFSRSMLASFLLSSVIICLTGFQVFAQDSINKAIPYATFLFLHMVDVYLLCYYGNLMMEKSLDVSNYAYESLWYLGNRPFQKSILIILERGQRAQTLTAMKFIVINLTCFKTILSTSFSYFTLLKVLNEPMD
Assay: Two-electrode voltage clamp of Xenopus laevis oocytes expressing AaegOR28/Orco (blends, unitary compounds, concentration-response)
Conditions: AaegOR28/Orco expressing oocytes, TEVC, concentration-response of normalized current
pEC50: −log10 of the molar value.
reported-endpoint: pEC50

> print(dat)
                                   molecule  reported.endpoint  numeric.result
1  CCC(C)(O)CCCC(C)C (stereo not shown) [tetrahydrolinalool, Tetrahydrolinalool]              pEC50            4.36

----------
Molecular target: UniProt Q16MN0
Sequence (Q16MN0 32-422): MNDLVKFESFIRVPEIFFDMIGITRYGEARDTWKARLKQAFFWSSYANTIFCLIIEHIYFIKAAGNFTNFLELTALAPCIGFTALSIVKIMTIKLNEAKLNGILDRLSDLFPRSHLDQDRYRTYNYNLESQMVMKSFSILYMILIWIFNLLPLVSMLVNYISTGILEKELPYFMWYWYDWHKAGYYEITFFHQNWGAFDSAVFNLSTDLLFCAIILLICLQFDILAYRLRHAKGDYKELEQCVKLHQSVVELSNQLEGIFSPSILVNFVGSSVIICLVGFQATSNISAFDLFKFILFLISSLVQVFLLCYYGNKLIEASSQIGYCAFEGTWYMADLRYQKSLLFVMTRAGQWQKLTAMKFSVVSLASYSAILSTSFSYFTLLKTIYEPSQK
Sequence (Q178U6 1-478 partner): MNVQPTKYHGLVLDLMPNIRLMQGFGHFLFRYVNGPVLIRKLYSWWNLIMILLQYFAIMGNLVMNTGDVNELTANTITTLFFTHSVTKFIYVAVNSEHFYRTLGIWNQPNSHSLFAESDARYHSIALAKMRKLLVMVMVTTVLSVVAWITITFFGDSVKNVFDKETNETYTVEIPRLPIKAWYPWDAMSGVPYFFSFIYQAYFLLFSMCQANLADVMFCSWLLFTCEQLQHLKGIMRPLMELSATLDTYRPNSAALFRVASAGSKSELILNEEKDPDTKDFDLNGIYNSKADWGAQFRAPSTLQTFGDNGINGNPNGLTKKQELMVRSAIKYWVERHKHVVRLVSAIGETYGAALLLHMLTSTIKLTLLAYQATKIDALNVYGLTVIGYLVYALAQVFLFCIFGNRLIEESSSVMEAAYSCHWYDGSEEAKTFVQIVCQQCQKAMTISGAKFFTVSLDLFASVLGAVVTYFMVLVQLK
Test: Two-electrode voltage clamp of Xenopus laevis oocytes expressing AaegOR8/Orco (blends, unitary compounds, concentration-response)
Type: cell-based
Conditions: Alcohols 2 unitary compounds; oocyte 2
reported-endpoint: Raw data (Responses in nA) Oocyte 2

> print(dat)
                                   compound  numeric.result
1                                   CCCCCCO            10.0
2             CC/C=C\CCO [cis-3-hexen-1-ol]             0.0
3    CC1CCCC2(C)CCCCC12O (stereo not drawn)             0.0
4  C[C@@H]1CC[C@H]2C(C)(C)[C@H]3C[C@@]12CC[C@@]3(C)O             0.0
5                                 OC1CCCCC1             0.0
6           C=CC(O)CCCCC (stereo not drawn)           160.0
7             CCC/C=C/C=O [trans-2-hexenal]             0.0
8           CCC/C=C/CO [trans-2-hexen-1-ol]             0.0
9                                COc1ccccc1             0.0

----------
Target: AaegOR6 (Aedes aegypti, UniProt A0A1S4G757)
Sequence (A0A1S4G757 1-398, one chain of several): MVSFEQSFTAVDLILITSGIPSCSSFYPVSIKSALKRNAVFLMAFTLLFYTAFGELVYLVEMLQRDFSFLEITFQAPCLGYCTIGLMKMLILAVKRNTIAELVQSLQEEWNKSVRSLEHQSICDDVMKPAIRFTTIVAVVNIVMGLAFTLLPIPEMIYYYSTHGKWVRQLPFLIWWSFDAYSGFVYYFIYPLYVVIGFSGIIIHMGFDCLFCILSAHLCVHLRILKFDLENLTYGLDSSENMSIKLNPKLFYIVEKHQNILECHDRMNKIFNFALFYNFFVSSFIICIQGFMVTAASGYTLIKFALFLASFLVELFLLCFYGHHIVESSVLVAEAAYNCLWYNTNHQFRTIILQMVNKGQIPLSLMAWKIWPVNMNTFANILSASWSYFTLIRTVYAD
Test: Two-electrode voltage clamp of Xenopus laevis oocytes expressing AaegOR6/Orco (blends, unitary compounds, concentration-response)
Assay type: cell-based
Details: Indoles 2 unitary compounds; oocyte 1
reported-endpoint: Raw data (Responses in nA) Oocyte 1

> print(dat)
                               compound  units  numeric.result
 1                     O=C1CCOc2ccccc21     nA            70.0
 2              O=C(O)Cc1c[nH]c2ccccc12     nA            10.0
 3  Oc1cccc2[nH]ccc12 [4-Hydroxyindole]     nA             0.0
 4                   OCc1c[nH]c2ccccc12     nA             0.0
 5                    O=Cc1ccnc2ccccc12     nA             0.0
 6                      O=C1Cc2ccccc2N1     nA             0.0
 7                       c1ccc2ncccc2c1     nA             0.0
 8                      Nc1cccc2cnccc12     nA             0.0
 9                       c1ccc2nccnc2c1     nA             0.0
10                    O=C1Nc2ccccc2C1=O     nA             0.0
11                       c1ccc2ncncc2c1     nA             0.0
